Assignment: determine reported growth for the given compounds.
# Test system: 786-0 renal
# measurement-description: NCI-60 one-dose screen, 48 h (100 = growth as untreated, 0 = no growth, -100 = all killed)
# particulars: 10 µM unless noted
# Experimental: Cells are grown in 96 well plates and exposed to the test compound for 48 hours. Compounds are tested at a single concentration, which is 10^-5 M for most compounds. The reported endpoint is percent growth (GI% or GIPRCNT), where numbers from 0 - 100% represent growth inhibition, and numbers from -100% - 0 represent cell death. For example, a value of 40 represents 60% growth inhibition. A value of 0 means no net growth occurred over the course of the experiment. […]
The panel holds about 83,000 compounds, 20% with a hit somewhere; the sample as a whole holds those more often.
Give bare numbers, in %.

Use the examples below as a reference point.
# compound, system-under-test, measurement
records = [
    ("CN(C)CCn1c(=O)c2c3cc4c(cc3n(CCN(C)C)c2c2ccc(Cl)cc21)OCO4", "786-0 renal", 61.1),
    ("Cc1c(Cn2c(C)nc3c(C(=O)O)cc(N4CCOCC4)cc32)cccc1C(F)(F)F", "786-0 renal", 95.8),
    ("O=C(/C=C/c1ccc2c(c1)OCO2)c1c(O)c2ccccc2oc1=O", "786-0 renal", 99.8),
    ("Cn1cc(-c2[nH]c3cc(NC(=O)[C@H](N)C4CCCCC4)cc4c3c2C=NNC4=O)cn1", "786-0 renal", -18.9),
    ("COc1cnc2c(c1)C(=O)c1c-2n(CCCN2CCC(N)CC2)c(=O)c2cc([N+](=O)[O-])ccc12", "786-0 renal", 36.2),
]

State the recorded growth for every item in the following list.
1. COc1cc2c(Oc3ccc4[nH]c(C)cc4c3F)ncnc2cc1OCCCN1CCCC1
2. COc1ccc2c(CCC(c3ccccc3)c3ccccc3)c3[n+](cc2c1OC)CCc1cc2c(cc1-3)OCO2
3. NC(=O)c1n[nH]n2c1nc(=O)c1c3c(sc12)CCCC3
4. Cc1cc(C)n(CC(=O)Nc2ccc(-c3nc4ccccc4s3)cc2)n1

1. 84.6
2. 14.8
3. 106
4. 106

----------
# Tested on: UACC-62 melanoma
# measurement-description: NCI-60 one-dose screen, 48 h
# particulars: 10 µM unless noted
This is part of a sample that, as a whole, favours compounds with a hit. Of some 83,000 tested, about 20% had one in any assay. Calls of active or inactive are those of the source. Rule for the calls: active = growth percent below 10; inactive = the rest.
Entry note: the call must match one of active, inactive

# molecule, class-name
records = [
    ("O=C(Cc1ccc(-c2ccc(OCCN3CCOCC3)cc2)cn1)NCc1ccccc1", "inactive"),
    ("Cc1cc(NCC(=O)Nc2ccc(-c3nc4ccccc4s3)cc2)no1", "inactive"),
    ("COc1cc2c(cc1O)c(=O)n(CCN(C)C)c1c3cc4c(cc3ncc21)OCO4", "active"),
]

I would be grateful if you could indicate the recorded call for C=CC[n+]1c(/C=C/C=C2\N(C)c3ccccc3C2(C)C)sc2ccc(OC)cc21 .
inactive

I would be grateful if you could indicate the recorded call for COC(=O)[C@]12CC[C@@H](C)[C@H](C)[C@@H]1C1=CC[C@@H]3[C@@]4(C)C(C=O)=C[C@@](C)(COS(C)(=O)=O)C4=CC[C@@]3(C)[C@]1(C)CC2 .
active

I would be grateful if you could indicate the recorded call for CC1(C=O)NC(=O)NC1=O (stereo unspecified) .
inactive

I would be grateful if you could indicate the recorded call for COc1ccc2c(OCc3nnc4ccc(-c5ccccc5)nn34)ccnc2c1 .
inactive

I would be grateful if you could indicate the recorded call for Cc1ccsc1C(NC(=O)c1ccccc1)c1cc(Cl)c2cccnc2c1O (stereo unspecified) .
active

I would be grateful if you could indicate the recorded call for COc1ncc(-c2ccc3nccc(-c4ccnnc4)c3c2)cc1NS(=O)(=O)c1ccc(F)cc1F .
active

I would be grateful if you could indicate the recorded call for CC(C)(C)C(=O)OCOP(=O)(OCOC(=O)C(C)(C)C)C1CCCN(OC(=O)c2ccccc2)C1=O (stereo unspecified) .
active

I would be grateful if you could indicate the recorded call for COc1cccc2cc(-c3nc(C4CCC(C(=O)O)CC4)n4ncnc(N)c34)[nH]c12 (stereo unspecified) .
active

I would be grateful if you could indicate the recorded call for O=C(Cn1ccc2ccccc21)Nc1ccc(-c2nc3ccccc3s2)cc1 .
inactive

I would be grateful if you could indicate the recorded call for CC12O[C@H](C[C@@H](OC(=O)CCC(=O)O)[C@H]1O)n1c3ccccc3c3c4c(c5c6ccccc6n2c5c31)C(=O)NC4=O .
active

I would be grateful if you could indicate the recorded call for Cn1ncc(Cl)c1-c1cc(C(=O)N[C@H](CN)Cc2cccc(F)c2)sc1Cl .
active

I would be grateful if you could indicate the recorded call for CN(C)C[C@@H]1CCn2cc(c3ccccc32)C2=C(C(=O)NC2=O)c2cn(c3ccccc23)CCO1 .
inactive

I would be grateful if you could indicate the recorded call for O=C1NC(=O)C(c2cnc3ccccn23)=C1c1cn2c3c(cc(F)cc13)CN(C(=O)N1CCCCC1)CC2 .
inactive

I would be grateful if you could indicate the recorded call for Cc1cc(C(=O)Nc2cc(Oc3ccc4nc(NC(=O)C5CC5)cn4n3)ccc2C)n(C)n1 .
active

I would be grateful if you could indicate the recorded call for CCCCCCCC(=O)SCC/C=C/[C@@H]1CC(=O)NCc2cccc(n2)C2=N[C@@](C)(CS2)C(=O)N[C@@H](C(C)C)C(=O)N1 .
active

I would be grateful if you could indicate the recorded call for CC(=O)OCCC/C(=C\c1ccc2ccccc2c1)[N+](=O)[O-] .
active

I would be grateful if you could indicate the recorded call for COc1cc2c(cc1OCCCCCN1CCN(c3ncnc4ccccc34)CC1)N=CC1CCCN1C2=O (stereo unspecified) .
active

I would be grateful if you could indicate the recorded call for Clc1ccc(/C=C/c2cc(N3CCOCC3)c3cc(Cl)c(Cl)cc3n2)cc1 .
inactive

I would be grateful if you could indicate the recorded call for COc1cc2c(cc1OCCCN1Cc3ccc(OCCCCC(=O)N4CCC(CCN5CCCC5)CC4)cc3C1)N=C(N)C21CCCC1 .
inactive

I would be grateful if you could indicate the recorded call for CC(=O)NCC(=O)N1[C@@H]2CC[C@H]1c1ccc(Nc3ncc(C(F)(F)F)c(NC4CCC4)n3)cc12 .
inactive

I would be grateful if you could indicate the recorded call for COC(=O)[C@H](Cc1ccccc1)NC(=O)[C@@H](OC)[C@@H]1Cc2cc3cc(OC4CC(OC5CC(O)C(O)C(C)O5)C(O)C(C)O4)c(C)c(O)c3c(O)c2C(=O)[C@H]1OC1CC(OC2CC(OC3CC(C)(O)C(O)C(C)O3)C(O)C(C)O2)C(O)C(C)O1 (stereo partly specified) .
active

----------
# Tested on: ACHN renal
# measurement-description: NCI-60 one-dose screen, 48 h
# particulars: 10 µM unless noted
About 83,000 compounds went through this panel and 20% of them were active in at least one assay; those are over-represented in the sample as a whole. Calls of active or inactive are those of the source. Rule for the calls: active = growth percent below 10; inactive = the rest.
Entry note: the call must match one of T = active, F = inactive

See these solved cases before continuing.
# compound, system-under-test, class-name
rows = [
    ("COC(=O)[C@]12CC[C@@H](C)[C@H](C)[C@@H]1C1=CC[C@@H]3[C@@]4(C)C[C@@H](OC(=O)/C=C/c5ccccc5)[C@H](O)[C@@](C)(CO)[C@@H]4[C@H](O)C[C@@]3(C)[C@]1(C)CC2", "ACHN renal", "T"),
    ("CNC(=O)CN1CCC(Oc2cc3c(Nc4cccc(Cl)c4F)ncnc3cc2OC)CC1", "ACHN renal", "T"),
    ("CN1CCN(CCOc2cc(OC3CCOCC3)c3c(Nc4c(Cl)ccc5c4OCO5)ncnc3c2)CC1", "ACHN renal", "F"),
    ("Cn1ncc(Cl)c1-c1cc(C(=O)N[C@H](CN)Cc2cccc(F)c2)sc1Cl", "ACHN renal", "F"),
    ("NC[C@@](O)(c1ccc(Cl)cc1)c1ccc(-c2cn[nH]c2)cc1", "ACHN renal", "F"),
]

I would be grateful if you could indicate the recorded call for C=CCCCOC1[C@H](OCc2ccccc2)C(OCc2ccccc2)C(OC)O[C@@H]1CNC(=O)c1cccc(I)c1 (stereo partly drawn) .
F

I would be grateful if you could indicate the recorded call for O=C(c1c(F)ccc(NS(=O)(=O)N2CC[C@@H](F)C2)c1F)c1c[nH]c2ncc(-c3cnc(C4CC4)nc3)cc12 .
F

I would be grateful if you could indicate the recorded call for CCCCn1c(C)nc2cc(Nc3nc(N4CCCCC4)nc4nc[nH]c34)ccc21 .
F

----------
# System: NCI-H322M lung
# measurement-description: NCI-60 one-dose screen, 48 h (100 = growth as untreated, 0 = no growth, -100 = all killed)
# particulars: 10 µM unless noted
The panel holds about 83,000 compounds, 20% with a hit somewhere; the sample as a whole holds those more often.
Respond with true (1) for growth values of 30% and above, false (0) for values below.

See these solved cases before continuing.
# compound, class-name
rows = [
    ("C=CC(=O)Nc1cccc(Oc2nc(Nc3ccc(N4CCN(C)CC4)cc3)nc3ccsc23)c1", "false (0)"),
    ("O=C(COc1cccc(/C=C2\\Cc3ccc(Cl)cc3C2=O)c1)Nc1nccs1", "true (1)"),
    ("COc1cc2c3c(c1)nc(C)n3CCC2", "true (1)"),
    ("C[C@@H]1COCCN1c1cc(C2([S@](C)(=N)=O)CC2)nc(-c2ccnc3[nH]ccc23)n1", "false (0)"),
]

API: above_or_equal(metric=growth, cutoff=30%) for item CCOc1cccc(/C=N/NC(=O)c2ccccc2Nc2ccnc(C(F)(F)F)c2)c1O
false (0)

Sourced from PubChem BioAssay (NCI)
